Molecular target: HLA-B*51:01
Test: IEDB peptide-MHC binding, purified MHC/competitive/fluorescence; filed as Kd, often an IC50 or EC50 that approximates it; bounds were set here for any values at or beyond the usual limits of such assays
Details: source organism: Encephalitozoon cuniculi GB-M1
pKd: −log10 of the molar value.
endpoint_label: pKd

So what's the measured pKd for this one? NLFEIEWEE ≤ 4.70

* * *

Target: HLA-B*51:01
Assay: IEDB peptide-MHC binding, purified MHC/direct/fluorescence; filed as Kd, often an IC50 or EC50 that approximates it; bounds were set here for any values at or beyond the usual limits of such assays
Conditions: source organism: Cowpox virus
endpoint_label: pKd
Numbers only, as −log10 of the molar value.

Fill in: pKd of YPPPRYITV is ___ 6.75
